System: human T-bet
EXPERIMENTAL_PROTOCOL: HEKT-bet-luc assay (normalized HEKT-bet IC50)
Assay type: cell-based
SETTINGS: Table 4, engineered HEK cells, compound 24 hours, normalized to reference ER-819544
ASSAY_ENDPOINT: IC50 (nM)
# unit: nM | format: bare number

State, in one line, measured IC50 of CCN1C(=O)N2Cc3cc(OC)cc(OC)c3[C@@H](C)C=C2C12CCN(Cc1nccn1C)CC2 [ER-819957-01]
55

// data source = patent US20110065916A1
